- Tested on: G. duodenalis BRIS/91/HEPU/1279
- Procedure details: Giardia dose response assay, assemblage B
- Type: cell-based, Giardia duodenalis
- Study conditions: Giardia duodenalis, 24 h, read-out: G. duodenalis IC50 24h, Table S2; 24 h; ±SD; max 10 µM
pIC50: −log10 of the molar value.
Measured pIC50 values are reported for all entries that follow.

> print(dat)
                            compound.smiles                   assayed.target  observable  reported
1  Cc1cccc(CNS(=O)(=O)c2cc(-c3csc(C)n3)sc2C)c1  G. duodenalis BRIS/91/HEPU/1279       pIC50    < 5.00
2  COc1cc(NS(=O)(=O)c2ccc(C)cc2)cc2sc(NC(=O)c3ccccc3)nc12  G. duodenalis BRIS/91/HEPU/1279       pIC50    < 5.00
3  O=[N+]([O-])c1ccc(N2CCC(c3ncc[nH]3)CC2)c2ccncc12  G. duodenalis BRIS/91/HEPU/1279       pIC50    < 5.00
4  CCOc1ccc(CCNC(=O)c2ccc3c(c2)nc2n3CCOC2)cc1OCC  G. duodenalis BRIS/91/HEPU/1279       pIC50    < 5.00

Continue with the next compound.
Which pIC50 is reported for this compound? O=C(NC1CCCCC1)c1nc(Nc2ccccc2)c2ccccc2n1 5.27
